# Method: Toxicity against Artemia salina by Spearman-Karber method
# Type: organism-based
# Condition: in vivo
Each record is given 1 if its reported LC50 is strictly below 90 µg/mL. Records at or above 90 µg/mL are given 0.

{"columns": ["Compound", "Qualitative label"],
 "data": [
  ["COc1cc(OC)c2c(=O)cc(C(C)C)oc2c1", 0],
  ["COc1cc(O)c2c(=O)cc(C)oc2c1 [EUGENIN]", 0],
  ["CCCc1cc(=O)c2c(O)cc(OC)cc2o1", 1],
  ["CCc1cc(=O)c2c(O)cc(OC)cc2o1", 1],
  ["COc1cc(O)c2c(=O)cc(C(C)C)oc2c1", 1],
  ["COc1cc(OC)c2c(=O)cc(Cc3ccccc3)oc2c1", 0],
  ["COc1cc(OC)c2c(=O)cc(C)oc2c1", 0],
  ["COc1cc(O)c2c(=O)cc(Cc3ccccc3)oc2c1", 0],
  ["CCCc1cc(=O)c2c(OC)cc(OC)cc2o1", 0],
  ["CCc1cc(=O)c2c(OC)cc(OC)cc2o1", 0]
]}
